Values from ChEMBL document CHEMBL1641454

assay: Volume of distribution in Beagle dog at 1 mg/kg, iv; assay type: ADME, organism-based, Canis lupus familiaris; parameters: dose 1 mg/kg, route intravenous; settings: in vivo
Consider the following compounds and their measured Vd readings.
Respond with a number, then the unit of measure.

Study these solved cases before continuing.
# chemical string, Vd
data = [
    ("COc1cc2c(cc1Cc1cccc(Cl)c1F)c(=O)c(C(=O)O)cn2[C@H](CO)C(C)C", "2.38 L/kg"),
    ("CC(C)(C)[C@@H](CO)n1cc(C(=O)O)c(=O)c2cc(Cc3cccc(Cl)c3F)c(N3CCOCC3)nc21", "1.03 L/kg"),
]

The recorded Vd for COc1nc2c(cc1NCc1c(F)cc(F)cc1F)c(=O)c(C(=O)O)cn2[C@H](CO)C(C)(C)C is 1.93 L/kg

====

Consider the following compounds and their measured Cmax readings.
assay: Cmax in rat at 5 mg/kg, po; assay type: ADME, organism-based; set-up: dose 5 mg/kg, route oral; details: in vivo
Please reply with the bare figure in ng/mL and do not write the unit itself.

Study these solved cases before continuing.
# chemical string, output unit, Cmax
data = [
    ("COc1cc2c(cc1Cc1cccc(Cl)c1F)c(=O)c(C(=O)O)cn2[C@H](CO)C(C)C", "ng/mL", 1140),
    ("COc1nc2c(cc1Cc1cccc(Cl)c1F)c(=O)c(C(=O)O)cn2[C@H](CO)C(C)(C)C", "ng/mL", 1230),
    ("CC(C)(C)[C@@H](CO)n1cc(C(=O)O)c(=O)c2cc(Cc3cccc(Cl)c3F)c(N3CCOCC3)nc21", "ng/mL", 414),
]

The recorded Cmax for COc1nc2c(cc1NCc1c(F)cc(F)cc1F)c(=O)c(C(=O)O)cn2[C@H](CO)C(C)(C)C is 666

====

assay: Oral bioavailability in rat at 5 mg/kg; assay type: ADME, organism-based; conditions: in vivo
Consider the following compounds and their measured bioavailability readings.

Study these solved cases before continuing.
# chemical string, bioavailability
data = [
    ("CC(C)(C)[C@@H](CO)n1cc(C(=O)O)c(=O)c2cc(Cc3cccc(Cl)c3F)c(N3CCOCC3)nc21", "26%"),
    ("COc1nc2c(cc1Cc1cccc(Cl)c1F)c(=O)c(C(=O)O)cn2[C@H](CO)C(C)(C)C", "31%"),
    ("COc1cc2c(cc1Cc1cccc(Cl)c1F)c(=O)c(C(=O)O)cn2[C@H](CO)C(C)C", "26%"),
]

Attention now turns to another entry.
The recorded bioavailability for COc1nc2c(cc1NCc1c(F)cc(F)cc1F)c(=O)c(C(=O)O)cn2[C@H](CO)C(C)(C)C is 23%

====

assay: Half life in rat at 5 mg/kg, po; type: ADME, organism-based; design: dose 5 mg/kg, route oral; conditions: in vivo
Consider the following molecules and their measured half-life readings.

# chemical string, half-life
rows = [
    ("COc1nc2c(cc1Cc1cccc(Cl)c1F)c(=O)c(C(=O)O)cn2[C@H](CO)C(C)(C)C", "2.9 h"),
    ("COc1nc2c(cc1NCc1c(F)cc(F)cc1F)c(=O)c(C(=O)O)cn2[C@H](CO)C(C)(C)C", "3.7 h"),
    ("CC(C)(C)[C@@H](CO)n1cc(C(=O)O)c(=O)c2cc(Cc3cccc(Cl)c3F)c(N3CCOCC3)nc21", "2.6 h"),
]

Attention now turns to another entry.
The recorded half-life for COc1cc2c(cc1Cc1cccc(Cl)c1F)c(=O)c(C(=O)O)cn2[C@H](CO)C(C)C is 2.9 h
